Observed IC50 for Human immunodeficiency virus type 1 protease (Human immunodeficiency virus 1), reported per entry below.
Numbers only, in nM.

Some solved entries appear below for comparison.
# Structure Notation, IC50 / nM
rows = [
    ("COc1cc(C(=O)N[C@@H](Cc2ccccc2)[C@@H](O)C[C@H](Cc2ccccc2)NC(=O)OC(C)(C)C)ccc1N", 7.5),
    ("CC(C)(C)OC(=O)N[C@@H](Cc1ccccc1)C[C@H](O)[C@H](Cc1ccccc1)NC(=O)c1cccc(O)c1", 3.4),
    ("CC(C)(C)OC(=O)N[C@@H](Cc1ccccc1)C[C@H](O)[C@H](Cc1ccccc1)NC(=O)c1ccc(O)c(O)c1", 4.1),
    ("CC(C)(C)OC(=O)N[C@@H](Cc1ccccc1)C[C@H](O)[C@H](Cc1ccccc1)NC(=O)c1ccc(N)c(N)c1", 9.6),
    ("CC(C)(C)OC(=O)N[C@@H](Cc1ccccc1)C[C@H](O)[C@H](Cc1ccccc1)NC(=O)c1c(Cl)ccc(N)c1Cl", 31),
]

Would you be so kind as to report IC50 for each listed record?
1. CC(C)(C)OC(=O)N[C@@H](Cc1ccccc1)C[C@H](O)[C@H](Cc1ccccc1)NC(=O)c1c(Cl)cccc1Cl
2. Cc1c(N)cccc1C(=O)N[C@@H](Cc1ccccc1)[C@@H](O)C[C@H](Cc1ccccc1)NC(=O)OC(C)(C)C

-- reply
[67, 2.6]
